All figures here come from patent US10646575B2.

molecular target: CRBN-DDB1 (Homo sapiens (Human), UniProt Q96SW2)
Sequence (Q96SW2 whole entry): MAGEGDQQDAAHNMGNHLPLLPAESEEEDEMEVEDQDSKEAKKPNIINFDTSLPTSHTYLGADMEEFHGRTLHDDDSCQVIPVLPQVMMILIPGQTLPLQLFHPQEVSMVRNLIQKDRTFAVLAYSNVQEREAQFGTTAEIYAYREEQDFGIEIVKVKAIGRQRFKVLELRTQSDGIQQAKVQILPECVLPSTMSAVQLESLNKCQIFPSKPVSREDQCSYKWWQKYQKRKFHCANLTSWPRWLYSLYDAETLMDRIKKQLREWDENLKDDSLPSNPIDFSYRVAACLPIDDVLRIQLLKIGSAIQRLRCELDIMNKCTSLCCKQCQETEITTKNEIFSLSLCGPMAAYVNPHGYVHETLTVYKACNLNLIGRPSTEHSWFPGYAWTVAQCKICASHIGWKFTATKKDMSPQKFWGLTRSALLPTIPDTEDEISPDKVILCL
Sequence (Q16531 whole entry partner): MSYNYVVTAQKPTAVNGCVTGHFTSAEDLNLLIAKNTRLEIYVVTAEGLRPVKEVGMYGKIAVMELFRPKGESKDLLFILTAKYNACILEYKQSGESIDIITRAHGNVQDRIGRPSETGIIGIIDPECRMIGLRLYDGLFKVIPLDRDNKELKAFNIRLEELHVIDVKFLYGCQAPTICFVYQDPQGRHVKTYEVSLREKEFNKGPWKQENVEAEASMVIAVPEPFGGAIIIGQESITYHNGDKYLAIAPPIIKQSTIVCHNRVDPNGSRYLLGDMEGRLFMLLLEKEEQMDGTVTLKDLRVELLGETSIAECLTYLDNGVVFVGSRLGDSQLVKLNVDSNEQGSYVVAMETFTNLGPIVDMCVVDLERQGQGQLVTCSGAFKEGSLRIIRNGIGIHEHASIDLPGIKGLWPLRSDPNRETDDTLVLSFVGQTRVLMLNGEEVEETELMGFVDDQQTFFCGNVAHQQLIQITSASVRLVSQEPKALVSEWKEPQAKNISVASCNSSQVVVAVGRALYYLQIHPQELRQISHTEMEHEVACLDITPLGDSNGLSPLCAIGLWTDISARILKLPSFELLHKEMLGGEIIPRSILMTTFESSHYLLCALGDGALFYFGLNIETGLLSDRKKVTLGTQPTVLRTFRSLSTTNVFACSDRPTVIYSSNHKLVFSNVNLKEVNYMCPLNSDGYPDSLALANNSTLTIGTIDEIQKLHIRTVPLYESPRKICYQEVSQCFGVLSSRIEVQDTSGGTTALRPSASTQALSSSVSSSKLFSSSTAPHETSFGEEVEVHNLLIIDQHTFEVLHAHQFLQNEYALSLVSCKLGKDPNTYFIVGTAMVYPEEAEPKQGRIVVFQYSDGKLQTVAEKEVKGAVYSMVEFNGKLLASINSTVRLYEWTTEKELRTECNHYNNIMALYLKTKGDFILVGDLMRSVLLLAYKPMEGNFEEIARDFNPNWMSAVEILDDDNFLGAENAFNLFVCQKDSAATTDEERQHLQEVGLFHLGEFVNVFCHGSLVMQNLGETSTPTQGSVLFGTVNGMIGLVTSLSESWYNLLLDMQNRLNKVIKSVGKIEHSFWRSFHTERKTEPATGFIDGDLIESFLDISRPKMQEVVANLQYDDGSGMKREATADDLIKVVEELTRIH
pKd: −log10 of the molar value.
parameter-measured: pKd

Query: What measured pKd is associated with O=C1NC(=O)C2(CC2)CC1N1C(=O)c2ccccc2C1=O (stereo not shown) on CRBN-DDB1 (Homo sapiens (Human), UniProt Q96SW2)?
Reply: 3.00 to 6.00
